- test: Single dose PK in healthy subjects (Cohorts 1, 2, S1 and S2), plasma
- Assay type: in vivo, human
- conditions: human, plasma, iv, 28 mg, 28 mg single IV infusion, healthy subjects; read-out: Ceoi Mean
- Source text: […]
readout kind: concentration at 9 h (ng/mL)

INSERT INTO assay_data (compound, readout_units, measured_value) VALUES
  ('COC(=O)N1CCC[C@H](NS(C)(=O)=O)[C@@H]1CO[C@H]1CC[C@@H](c2ccccc2)CC1 [Compound A]', 'ng/mL', 52.5);

---

- test: Single dose PK in healthy subjects (Cohorts 1, 2, S1 and S2), plasma
- Assay type: in vivo, human
- conditions: human, plasma, intravenous, 7 mg; 0.5 hr; read-out: Plasma concentration, Median
- Description: […]
readout kind: concentration at 0.5 h

INSERT INTO measurements (molecule, readout_kind, measured_value) VALUES
  ('COC(=O)N1CCC[C@H](NS(C)(=O)=O)[C@@H]1CO[C@H]1CC[C@@H](c2ccccc2)CC1 [Compound A]', 'concentration at 0.5 h', '9.54 ng/mL');

---

- test: Single dose PK in healthy subjects (Cohorts 1, 2, S1 and S2), plasma
- Type: in vivo, human
- conditions: human, plasma, intravenous, 7 mg; 0.5 hr; read-out: Plasma concentration, Maximum
readout kind: concentration at 0.5 h (ng/mL)

INSERT INTO results (input_smiles, measured_value) VALUES
  ('COC(=O)N1CCC[C@H](NS(C)(=O)=O)[C@@H]1CO[C@H]1CC[C@@H](c2ccccc2)CC1', 10.5);

---

- test: Single dose PK in healthy subjects (Cohorts 1, 2, S1 and S2), plasma
- Assay type: in vivo, human
- conditions: human, plasma, intravenous, 7 mg; 6 hr; read-out: Plasma concentration, Minimum
readout kind: concentration at 6 h (ng/mL)

INSERT INTO assay_data (molecule, measured_value) VALUES
  ('COC(=O)N1CCC[C@H](NS(C)(=O)=O)[C@@H]1CO[C@H]1CC[C@@H](c2ccccc2)CC1 [Compound A]', 8.82);

---

- test: Single dose PK in healthy subjects (Cohorts 1, 2, S1 and S2), plasma
- Type: in vivo, human
- conditions: human, plasma, intravenous, 112 mg; 3 hr; read-out: Plasma concentration, Mean
- Excerpt: […]
readout kind: concentration at 3 h (ng/mL)

INSERT INTO assay_data (molecule, readout_kind, measured_value) VALUES
  ('COC(=O)N1CCC[C@H](NS(C)(=O)=O)[C@@H]1CO[C@H]1CC[C@@H](c2ccccc2)CC1 [Compound A]', 'concentration at 3 h', 222);

---

- test: Single dose PK in healthy subjects (Cohorts 1, 2, S1 and S2), plasma
- Type: in vivo, human
- conditions: human, plasma, iv, 56 mg, 56 mg single IV infusion, healthy subjects; read-out: AUCinf Median
readout kind: AUC(0-inf) (ng·h/mL)

INSERT INTO measurements (compound, measured_value) VALUES
  ('COC(=O)N1CCC[C@H](NS(C)(=O)=O)[C@@H]1CO[C@H]1CC[C@@H](c2ccccc2)CC1 [Compound A]', 1050);

---

- test: Single dose PK in healthy subjects (Cohorts 1, 2, S1 and S2), plasma
- Format: in vivo, human
- conditions: human, plasma, intravenous, 56 mg; 2 hr; read-out: Plasma concentration, Mean
readout kind: concentration at 2 h (ng/mL)

INSERT INTO results (compound, measured_value) VALUES
  ('COC(=O)N1CCC[C@H](NS(C)(=O)=O)[C@@H]1CO[C@H]1CC[C@@H](c2ccccc2)CC1 [Compound A]', 99.5);
